system: HUVEC; assay: Anti-angiogenesis activity against HUVEC cells assessed as tubule formation at 250 nM incubated for 6 hrs by inverted fluorescence microscopic analysis relative to control; format: functional, Homo sapiens
Below, each of the compounds is paired with its reported Activity value.

| Smiles Str | Activity |
| --- | --- |
| N#Cc1c(Nc2ccccc2O)sc2ccccc12 | 68% |
| N#Cc1c(Nc2ccc(C(F)(F)F)cc2)sc2ccccc12 | 65% |
| N#Cc1c(Nc2ccc(F)cc2)sc2ccccc12 | 58% |
| COc1cc2sc(Nc3cccc(O)c3)c(C#N)c2cc1OC | 67% |
| N#Cc1c(Nc2ccc([N+](=O)[O-])cc2)sc2ccccc12 | 37% |
| N#Cc1c(Nc2ccc(O)cc2)sc2ccccc12 | 2% |

* * *

test: Tmax in Sprague-Dawley rat at 25 mg/kg, IM measured up to 48 hrs; assay type: ADME, organism-based; conditions: in vivo
Measured Quantity: Tmax

| Smiles Str | Result |
| --- | --- |
| N#Cc1c(Nc2ccc(O)cc2)sc2ccccc12 | 30 min |

* * *

experiment: Clearance in Sprague-Dawley rat at 25 mg/kg, IM measured up to 48 hrs; type: ADME, organism-based; conditions: in vivo

| Smiles Str | CL/F, mL/min/kg |
| --- | --- |
| N#Cc1c(Nc2ccc(O)cc2)sc2ccccc12 | 205 |

* * *

Below, each of the compounds is paired with its reported Activity value.
system: HUVEC; test: Anti-angiogenesis activity against HUVEC cells assessed as tubule formation at 10 uM incubated for 6 hrs by inverted fluorescence microscopic analysis relative to control; type: functional, Homo sapiens

| Smiles Str | Test Target | Activity (%) |
| --- | --- | --- |
| COc1cc2sc(Nc3cccc(O)c3)c(C#N)c2cc1OC | HUVEC | 11 |
| COc1c2c(cc3c(C#N)c(Nc4ccccc4)sc13)OCO2 | HUVEC | 81 |
| N#Cc1c(Nc2ccccc2)sc2ccccc12 | HUVEC | 81 |
| N#Cc1c(Nc2ccccc2)sc2cc3c(cc12)OCO3 | HUVEC | 75 |
| N#Cc1c(Nc2ccc(O)cc2)sc2ccccc12 | HUVEC | 25 |
| COc1ccc(Nc2sc3c(OC)cc(OC)cc3c2C#N)cc1 | HUVEC | 63 |
| N#Cc1c(Nc2cccc(O)c2)sc2ccccc12 | HUVEC | 0 |
| N#Cc1c(Nc2ccccc2)sc2cc3ccccc3cc12 | HUVEC | 50 |
| COc1cc2sc(Nc3ccc(O)cc3)c(C#N)c2cc1OC | HUVEC | 0 |
| N#Cc1c(Nc2ccc([N+](=O)[O-])cc2)sc2ccccc12 | HUVEC | 8 |
| COc1cc2sc(Nc3ccccc3)c(C#N)c2cc1OC | HUVEC | 77 |
| N#Cc1c(Nc2ccccc2O)sc2ccccc12 | HUVEC | 19 |

* * *

Below, each of the compounds is paired with its reported Activity value.
tested on: HUVEC; experiment: Anti-angiogenesis activity against HUVEC cells assessed as tubule formation at 10 uM incubated for 6 hrs by inverted fluorescence microscopic analysis relative to control; format: functional, Homo sapiens
Measured Quantity: Activity (%)

| Smiles Str | Measured Quantity | Unit | Quantitative Result |
| --- | --- | --- | --- |
| N#Cc1c(Nc2ccc(Cl)cc2)sc2ccccc12 | Activity | % | 45 |
| N#Cc1c(Nc2ccc(F)cc2)sc2ccccc12 | Activity | % | 25 |
| N#Cc1c(Nc2ccc(N)cc2)sc2ccccc12 | Activity | % | 1 |
| COc1cccc(Nc2sc3ccccc3c2C#N)c1 | Activity | % | 81 |
| CC(=O)N(c1ccc(O)cc1)c1sc2ccccc2c1C#N | Activity | % | 36 |
| COc1ccc(Nc2sc3ccccc3c2C#N)cc1 | Activity | % | 57 |
| N#Cc1c(Nc2ccc(C(F)(F)F)cc2)sc2ccccc12 | Activity | % | 24 |

* * *

assay: Stability in simulated intestinal fluid at pH 6.8 assessed as parent compound remaining after 2 hrs; type: ADME; details: read-out: Stability

| Smiles Str | remaining at 2 h / % |
| --- | --- |
| N#Cc1c(Nc2ccc(O)cc2)sc2ccccc12 | 89 |

* * *

assay: Metabolic stability in rat liver microsomes assessed as half life; format: ADME, Microsome

| Smiles Str | half-life |
| --- | --- |
| N#Cc1c(Nc2ccc(O)cc2)sc2ccccc12 | 1.87 h |

* * *

test: Cmax in Sprague-Dawley rat at 25 mg/kg, IM measured up to 48 hrs; format: ADME, organism-based; design: route intramuscular, dose 25 mg/kg, time <=48; settings: in vivo

| Smiles Str | Unit | Cmax |
| --- | --- | --- |
| N#Cc1c(Nc2ccc(O)cc2)sc2ccccc12 | ng/mL | 442 |

* * *

experiment: Elimination rate constant in Sprague-Dawley rat at 25 mg/kg, IM measured up to 48 hrs; format: ADME, organism-based; conditions: in vivo

| Smiles Str | k el at 48 h |
| --- | --- |
| N#Cc1c(Nc2ccc(O)cc2)sc2ccccc12 | 3.47e-05 s⁻¹ |

* * *

test system: HUVEC; test: Anti-angiogenesis activity against HUVEC cells assessed as tubule formation at 250 nM incubated for 6 hrs by inverted fluorescence microscopic analysis relative to control; format: functional, Homo sapiens
Rule: 1 (yes) for Activity not less than 50%, 0 (no) for anything less.

| Smiles Str | Test Target | Class Label |
| --- | --- | --- |
| N#Cc1c(Nc2cccc(O)c2)sc2ccccc12 | HUVEC | 1 (yes) |
| CC(=O)N(c1ccc(O)cc1)c1sc2ccccc2c1C#N | HUVEC | 1 (yes) |
| COc1cc2sc(Nc3ccc(O)cc3)c(C#N)c2cc1OC | HUVEC | 1 (yes) |
| N#Cc1c(Nc2ccc(Cl)cc2)sc2ccccc12 | HUVEC | 0 (no) |
